Tested on: NCI-H460
assay_notes: NCI tumour cell line growth inhibition, 48 h
Activity calls are given as the source filed them. Cut-off read from the data, not from the text of the source: active = GI50 up to about 1.1 µM and inactive = higher.
Outcome codes: active, inactive

• CC(=O)N[C@H]1CCCC[C@@H]1OC(C)=O = inactive
• COC(=O)C1=C(O)C(C(=O)OC)[C@@]2(O)[C@@H](C(=O)OC)[C@H](C)C[C@@H]1[C@@H]2C(=O)OC (some centres undefined) = inactive
• C=CC(O)C#Cc1cnc(OC)nc1OC (centres undefined) = inactive
• Cc1ccc(C(=O)Nc2ccc(CP(=O)(O)O)cc2CP(=O)(O)O)cc1NC(=O)Nc1cc(C(=O)Nc2ccc(CP(=O)(O)O)cc2CP(=O)(O)O)ccc1C = inactive
• O=C1C=Cc2c(-c3ccccc3)oc3cccc1c23 = inactive
• CSc1cc(C(C)(C)C)ccc1C(O)c1ccc(C(C)(C)C)cc1SC = inactive
• Cc1cc2c3c(c1)CCCN3CCC2 = inactive
• CCCCCc1cc2cc3c(c(O)c2c(=O)[nH]1)C1(CCC3)C(=O)c2c(O)c3c(c(O)c2C1=O)C(=O)C(OC)=CC3=O (centres undefined) = active
• CC(C)C[C@H]1[C@@H](OCc2ccccc2)COS(=O)N1[C@H](C)c1ccccc1 (some centres undefined) = inactive
• CC(C)[Si](OCC1CC(C#N)OC(C)(C)O1)(C(C)C)C(C)C (centres undefined) = inactive
• N/C(=N\O)N/N=C/c1cccc(F)c1 = inactive
• CCCCCCCCCCCCCCCCc1c(O)nc(NN)nc1C(=O)OC = inactive
• CCOC(=O)C1(C#N)OC(=O)c2cnccc21 (centres undefined) = inactive
• O=C(O)/C=N\N=c1[nH]c2ccccc2[nH]1 = inactive

###

Tested on: SR
assay_notes: NCI tumour cell line growth inhibition, 48 h
Calls of active or inactive are those of the source. Rule as the data show it: active = GI50 up to about 1.1 µM and inactive = higher.
Possible outcomes: active, inactive

- Cc1cccc2cc3cccc(C(=O)NCCN(C)C)c3nc12: active
- Cc1[nH]c2ccccc2c1C1Cc2ccccc2N1C(=O)/C=C\C(=O)O (configuration not stated): inactive
- COC(=O)/C=C1/OC(c2ccccc2)=C(Cl)C1=O: inactive
- CN(C)CCC(=O)c1ccccc1: inactive
- COc1c(Cl)ccc(Cl)c1-c1nnc(-c2c(Cl)c(Cl)c(Cl)c(Cl)c2-c2nc3cc(C(=O)c4ccccc4)ccc3[nH]2)o1: inactive
- O=C1C=Cc2c(-c3ccccc3)oc3cccc1c23: inactive
- Cc1ccc(/C=C/C(=O)C(C)C)cc1: inactive
- O=C1NCN(c2ccccc2)C12CCN(CCCN1CCN(CCOC(c3ccccc3)c3ccccc3)CC1)CC2: active
- CC(=O)O[C@H]1C#C/C=C\C#CC[C@@H]2C(=O)N(C(=O)OC(C)(C)C)[C@@H]12: inactive
- CCOc1ccc(/N=N/c2c(-c3ccccc3)nn(C(=O)CC(=O)Nc3ccccc3Cl)c2-c2ccccc2)cc1: inactive
- CCOC(=O)C1=C(C)N(NC(=O)Nc2ccccc2)C2(N)N(NC(=O)Nc3ccccc3)C(C)=C(C(=O)OCC)C12C(=O)OCC (configuration not stated): inactive
- N=C(CCl)NC1CN2CCC1CC2 (configuration not stated): inactive

###

Tested on: OVCAR-5
assay_notes: NCI tumour cell line growth inhibition, 48 h
Active and inactive are the calls of the source. Rule as the data show it: active = GI50 up to about 1.1 µM and inactive = higher.
Labels: true (1) = active, false (0) = inactive

* COc1ccc2cc(CNCCOCCOCCNCc3ccc4cc(OC)ccc4c3)ccc2c1 | false (0)
* Nc1nnc2oc3ccc4ccccc4c3cc1-2 | false (0)
* NC1=C(N2CCCCC2)C(=O)NC2=N/C(=C\c3ccccc3)C(=O)N21 | false (0)
* O=C(NCCO)Nc1c(C(F)(F)F)cc(-c2ccccc2)[nH]c1=O | false (0)
* COc1c(O)c(OC)c2oc(-c3ccc(O)c(O)c3)c(OC)c(=O)c2c1O | false (0)
* Cc1c(-c2ccccn2)ccc2ccccc12 | false (0)
* O=[N+]([O-])c1ccc(O)c(/C=N/NC(=S)N2CCCCC2)c1 | false (0)
* Cc1ccc([N+](=O)[O-])cc1NC1=NCCO1 | false (0)
* CC(=O)c1ccccc1NCC(=O)Nn1cnc2ccc(S(=O)(=O)Nc3ccccc3C(C)=O)cc2c1=O | false (0)
* C=CC(O)C#Cc1cnc(OC)nc1OC (configuration not stated) | false (0)
* O=c1c2ccccc2c(=O)n2n1CC=CC2 | false (0)
* CN(C)CCS/C(=N\c1ccccc1)N1CCCCC1 | false (0)
* CCOC(=O)C1=C(C)N(NC(=O)Nc2ccccc2)C2(N)N(NC(=O)Nc3ccccc3)C(C)=C(C(=O)OCC)C12C(=O)OCC (configuration not stated) | false (0)
* N#Cc1cnn2cc[nH]c12 | false (0)
* O=C1OC(=O)c2c1nc1ccccc1c2-c1ccccc1 | false (0)
* C1CCN(c2nc(=[N+]3CCCCC3)ss2)CC1 | false (0)
* CC(C)C[C@H](NC(=O)[C@H](Cc1cccc2ccccc12)NS(=O)(=O)c1cccc2cccnc12)B(O)O | true (1)
* O=C1CCCC2=C1CC1=C(CCCC1=O)N2c1ccc([N+](=O)[O-])cc1 | false (0)
* CC1(S)CC2C(CC1Sc1ccccc1)C2(C)C (configuration not stated) | false (0)
* CC(=O)Oc1cc(-c2oc3cc(OC(C)=O)c(C4OC(CO)C(O)C(O)C4O)c(OC(C)=O)c3c(=O)c2O)c(OC(C)=O)cc1O (configuration not stated) | false (0)
* O=[N+]([O-])c1cc2c(cc1/C=N/n1c(CO)nc3ccccc31)OCO2 | false (0)
* COc1ccccc1NC(=O)C(=O)C(C#N)CC(C)(C)C=O (configuration not stated) | false (0)
